Kindly supply the reported pIC50 values for the records listed here.
Test system: Lp(a) production in HepG2^K17 cells
Assay: LPA3 screen: inhibition of Lp(a) production in transfected HepG2 cells, Lp(a) in media by ELISA
Assay type: cell-based
Details: Homo sapiens, 8 hours, 0.3 to 50 μM compound, Lp(a) normalized for total protein, read-out: Lp A3 IC50
One number for each entry, as −log10 of the molar value.

Some compounds with known pIC50 results, for comparison:
INSERT INTO results (smiles_str, target_system, experimental_readout, result) VALUES
  ('CCOc1ccccc1C(=O)N(Cc1ccccc1-c1ccccc1)c1ccc(OC)nc1', 'Lp(a) production in HepG2^K17 cells', 'pIC50', 4.50),
  ('O=C(c1sc2ccccc2c1Cl)N(Cc1cccnc1)Cc1ccccc1-c1ccccc1', 'Lp(a) production in HepG2^K17 cells', 'pIC50', 4.61),
  ('Cc1ccsc1C(=O)N(Cc1ccc2c(c1)C(C)(C)CCC2(C)C)c1ccc(I)cc1', 'Lp(a) production in HepG2^K17 cells', 'pIC50', 4.39);

Record pIC50 per entry; entries follow.
1. CC(C)c1ccc(C(=O)N(Cc2ccc(C(C)(C)C)cc2)c2cccnc2)cc1
2. O=C(c1ccccc1Br)N(Cc1ccccc1-c1ccccc1)c1ccccn1

1. 4.37
2. 4.73
